Kindly state FICI for each of the entries shown.
System: Cryptococcus neoformans
ASSAY NAME: checkerboard drug interaction (FICI, MICc);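 also: antifungal plus FPPS inhibitor pairs tested against Cryptococcus neoformans by simplified diagonal checkerboard screening, FICI computed under the Loewe additivity model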
Type: cell-based
ASSAY SETUP: C. neoformans; KET:INH combination

stdin: Please look up its FICI: CCCCCCCCCCCCN1CCC[C@H]1C(=O)N[C@H](CC(=O)O)C(=O)O [PDA12]
stdout: ≥4

stdin: How about CCCCCCCCCCCN1CCC[C@H]1C(=O)N[C@H](CC(=O)O)C(=O)O [PDA11] ?
stdout: ≥4

stdin: How about CCCCCCCCCN1CCC[C@H]1C(=O)N[C@H](CC(=O)OC)C(=O)OC [dmPDA9] ?
stdout: ≥4

###

Test system: Candida glabrata
ASSAY NAME: MIC/MFC broth microdilution (CLSI);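 also: broth microdilution following CLSI M27-Ed4, MFC taken as the lowest drug level yielding no growth once MIC wells were subcultured on SDA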
ASSAY SETUP: Nakaseomyces glabratus, CBS138
READOUT NAME: MFC (µg/mL)
Please give a number only; it is taken to be in µg/mL.

stdin: Please look up its MFC: CCCCCCCCCCCN1CCC[C@H]1C(=O)N[C@H](CC(=O)OC)C(=O)OC [dmPDA11]
stdout: 128

stdin: How about CCCCCCCCCCN1CCC[C@H]1C(=O)N[C@@H](CC(=O)OC)C(=O)OC [dmPLA10] ?
stdout: 32

stdin: How about O=P(O)(O)C(O)(Cn1ccnc1)P(=O)(O)O [ZOL, zoledronate] ?
stdout: 32

stdin: How about CCCCCCCCCCCCN1CCC[C@H]1C(=O)N[C@H](CC(=O)OC)C(=O)OC [dmPDA12] ?
stdout: 128

stdin: How about CCCCCCCCCCCN1CCC[C@H]1C(=O)N[C@@H](CC(=O)OC)C(=O)OC [dmPLA11] ?
stdout: 64

stdin: How about CC(=O)N1CCN(c2ccc(OCC3COC(Cn4ccnc4)(c4ccc(Cl)cc4Cl)O3)cc2)CC1 (stereo not shown) [KET, ketoconazole] ?
stdout: 4

###

Kindly state INH MICc (KET:INH) for each of the entries shown.
Test system: Trichophyton rubrum
ASSAY NAME: checkerboard drug interaction (FICI, MICc)
Assay type: cell-based
ASSAY SETUP: T. rubrum; MIC of the inhibitor in combination with ketoconazole
Please reply with the number alone, leaving off any unit.

stdin: Item: `CCCCCCCCCN1CCC[C@H]1C(=O)N[C@@H](CC(=O)OC)C(=O)OC` Test system: Trichophyton rubrum Read-out: INH MICc (KET:INH) Value: ?
stdout: 128

stdin: How about `CCCCCCCCCCCCN1CCC[C@H]1C(=O)N[C@H](CC(=O)OC)C(=O)OC` ?
stdout: 32

stdin: How about `CCCCCCCCCCCCN1CCC[C@H]1C(=O)N[C@@H](CC(=O)OC)C(=O)OC` ?
stdout: 16

stdin: How about `CCCCCCCCCCN1CCC[C@H]1C(=O)N[C@H](CC(=O)OC)C(=O)OC` ?
stdout: 64

stdin: How about `CCCCCCCCCCCN1CCC[C@H]1C(=O)N[C@H](CC(=O)OC)C(=O)OC` ?
stdout: 128

###

Tested on: Aspergillus flavus
ASSAY NAME: checkerboard drug interaction (FICI, MICc)
Format: cell-based
ASSAY SETUP: A. flavus; MIC-MICc fold decrease of fluconazole; negative = increase
READOUT NAME: FLC FD (FLC:INH)
Please reply with the number alone, leaving off any unit.

stdin: Please look up its FLC FD (FLC:INH): CCCCCCCCCN1CCC[C@H]1C(=O)N[C@@H](CC(=O)O)C(=O)O [PLA9]
stdout: 1

stdin: How about CCCCCCCCCN1CCC[C@H]1C(=O)N[C@H](CC(=O)OC)C(=O)OC [dmPDA9] ?
stdout: 1

stdin: How about CCCCCCCCCN1CCC[C@H]1C(=O)N[C@@H](CC(=O)OC)C(=O)OC [dmPLA9] ?
stdout: 1
